Assay: galactose survival enhancers in mitochondrial complex I cybrids – cell-based, galactose medium, ATP luminescence, primary screen (AID 1645843);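 also: positive z means more ATP and so rescue of galactose-driven cybrid death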
Settings: complex I mutant cybrid cells, 72 h, stronger effect = higher value
// reported z-score for each item listed
// response body must contain only the number

Compound	z-score
CN(CCc1ccccn1)C(=O)c1ccc2sc(N)nc2c1	-0.435
C[C@]12C=CC(=O)C=C1CCC1C2C(O)C[C@@]2(C)C1CC[C@]2(O)C(=O)COC(=O)CCC(=O)O (stereo partly drawn)	1.77
N[C@H](C(=O)O)[C@H](Cc1ccccc1)C(=O)O	0.705
CCc1nc(C)ccc1OCC(=O)N1CCc2[nH]nc(C3CC3)c2C1	-0.685
Nc1nc(=O)n([C@@H]2CS[C@H](CO)O2)cc1F	0.88
CCc1nc(NC(=O)NC(c2ccccc2)c2ccco2)nn1C (stereo not drawn)	1.04
CC(=O)O[C@@]12COC1CC(O)[C@@]1(C)C(=O)C(O)C3=C(C)C(OC(=O)C(O)C(NC(=O)OC(C)(C)C)c4ccccc4)C[C@](O)(C(OC(=O)c4ccccc4)C21)C3(C)C (stereo partly drawn)	-1.09

Switching to the query record.
# get_value(readout='z-score', item= O=C(Cn1cnc2ccccc21)N1CCc2c(cc(-c3cccc(Cl)c3)c(=O)n2CC2CC2)C1 )
-0.315

* * *

// reported inhibition for each item listed
Assay: growth inhibition, single agent or in combination, cell-based, chromothripsis tumors, cisplatin or BGB combos (AID 1671449);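 also: cells exposed for 96 hours; 0% = vehicle DMSO and 100% = killing by high DMSO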
Conditions: LFS_MB_P medulloblastoma cells, measured here: combination with cisplatin, at 5 µM, stronger effect = higher value
The response must be a number in % with no trailing unit.

Recorded inhibition, per entry:
Compound	Units	inhibition
CC(=O)C1(O)Cc2c(O)c3c(c(O)c2C(OC2CC(N)C(O)C(C)O2)C1)C(=O)c1ccccc1C3=O (centres undefined)	%	125
Cc1cc(C)c(Nc2ccnc(Nc3ccc(C#N)cc3)n2)c(C)c1	%	-40.8
Nc1ccccc1NC(=O)c1cnccn1	%	-28.5
C[C@@H]1O[C@@H](O[C@@H]2[C@@H](O)[C@H](OCCc3ccc(O)c(O)c3)O[C@H](CO)[C@H]2OC(=O)C=Cc2ccc(O)c(O)c2)[C@H](O)[C@H](O)[C@H]1O	%	-15.6
COc1ccc(-c2nc(-c3cc(C(F)(F)F)cc(C(F)(F)F)c3)n(Cc3ccc(C(N)=O)cc3)c2-c2ccc(OC)cc2)cc1	%	-39.4
Nc1nc(NC2CC2)cc(-c2cccc(Cl)c2Cl)n1	%	-1.92
COc1cccc2c1C(=O)c1c(O)c3c(c(O)c1C2=O)CC(O)(C(=O)CO)CC3OC1CC(N)C(OC2CCCCO2)C(C)O1 (centres undefined)	%	110
C[C@H](NC(=O)c1ccccc1N=Cc1c(O)ccc2ccccc12)c1ccccc1	%	-10

Switching to the query record.
# get_value(readout='inhibition', item= N#Cc1ccc(OC2CCC(NC(=O)CCSc3nc4ccccc4c(=O)[nH]3)CC2)cc1 (centres undefined) )
-57.3

* * *

Test: compounds altering viability of human ES cells (AID 493140);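 also: cells exposed to compounds for four days before counting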
Details: human embryonic stem cell survival screen; stronger effect = higher value
fulfilled means recorded survival is 80 or above; not fulfilled means it is below 80.

A selection of reference data follows.
Compound	Class name
NCC1OC(OC2C(N)CC(N)C(O)C2O[C@@H]2O[C@H](CO)[C@H](O)C2O)C(N)C(O)C1O (stereo partly drawn)	not fulfilled
CCCCC/C=C\C[C@H](O)/C=C/C=C\C/C=C\CCCC(=O)O	fulfilled
CCCCCC[C@@H](O)C/C=C\CCCCCCCC(=O)O	fulfilled
CCCCC/C=C\C/C=C\C/C=C\CCCCCCC(=O)O[C@H](COCCCCCCCCCCCCCCCC)COP(=O)([O-])OCC[N+](C)(C)C	not fulfilled
CC(C)NCC1CCc2cc(CO)c([N+](=O)[O-])cc2N1 (stereo not drawn)	not fulfilled

Is reported survival greater than or equal to 80 here: Cn1c(-c2ccc3c(c2)OCO3)cc(=O)c2ccccc21
not fulfilled

Is reported survival greater than or equal to 80 here: CC/C=C\C[C@H](O)/C=C/C=C\C/C=C\C/C=C\CCCC(=O)O
fulfilled

* * *

// reported fold change for each item listed
Test: viability loss with induced miR-34 in A549 – imaging, A549 dox-inducible miR-34, nuclei and caspase counts, primary screen (AID 1347080)
Conditions: A549 miR-34 inducible, Hoechst nuclei count, 48 h; measured here: relative caspase fold change +Dox/-Dox
// response body must contain only the number

Recorded fold change, per entry:
Molecule	fold change
O=C1CCCc2occ(C(=O)N3CCc4[nH]nc(Cc5ccccc5)c4C3)c21	0.441
O=S(=O)(Nc1cc(-c2cccs2)nn1-c1ccc(F)cc1)c1cccc(F)c1	0.956
C=C1C[C@@]23CC[C@H]4[C@@](C)(CCC[C@@]4(C)C(=O)OC4OC(CO)C(O)C(O)C4O)[C@@H]2CC[C@]1(OC1OC(CO)C(O)C(O)C1OC1OC(CO)C(O)C(O)C1O)C3 (some centres undefined)	0.521
O=C(Cn1nc(Cc2ccccc2)c2ccccc2c1=O)NCCc1ccco1	0.881
CC(CCC(=O)O)[C@@H]1CC[C@H]2[C@@H]3C(O)C[C@@H]4CC(O)CC[C@]4(C)[C@@H]3CC[C@]12C (some centres undefined)	0.703
CN(C)C/C=C(\c1ccc(Br)cc1)c1cccnc1	0.86
O=C(Nc1cccc(-c2nn[nH]n2)c1)c1cccc(F)c1	0.795
CC[C@H](C)C(=O)O[C@H]1C[C@H](O)C=C2C=C[C@H](C)[C@H](CC[C@@H]3C[C@@H](O)CC(=O)O3)[C@H]21	2.14

Switching to the query record.
# get_value(readout='fold change', item= O=C1/C(=C/c2ccsc2)CC/C1=C\c1cccs1 )
1.31

* * *

// reported z-score for each item listed
Test: MELAS cybrid and Rieske KO viability enhancers – cell-based, MELAS cybrids, Rieske KO mouse fibroblasts, CellTiter-Glo, primary screen (AID 1508586);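 also: z relative to plate mean and SD of compound and empty wells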
Conditions: MELAS cybrid survival, low glucose, CellTiter-Glo 48 h; stronger effect = higher value
// response body must contain only the number

Recorded z-score, per entry:
Compound	z-score
O=C1NC(=O)C(=Cc2ccc3c(c2)OC(F)(F)O3)S1	-0.318
CCOC(=O)C(CCc1ccccc1)NC(C)C(=O)N1C(=O)N(C)CC1C(=O)O (stereo not drawn)	0.163
N[C@@H]1CCCCN(c2c(F)cc3c(=O)c(C(=O)O)cn(C4CC4)c3c2Cl)C1	0.702
CC(=O)C1CC[C@H]2[C@@H]3CCC4=CC(=O)CC[C@]4(C)[C@@H]3CC[C@]12C (stereo partly drawn)	-0.493
CC1(C)O[C@@H]2C[C@H]3[C@@H]4CCC5=CC(=O)C=C[C@]5(C)[C@@H]4C(O)C[C@]3(C)[C@@]2(C(=O)CO)O1 (stereo partly drawn)	-0.511

Switching to the query record.
# get_value(readout='z-score', item= O=C1CN(c2ncnc3sccc23)CCN1Cc1cccc(F)c1 )
-0.104

* * *

Test: drug combination growth inhibition, ovarian cancer – cell-based, oncology-focused library, rucaparib conditional, profiling panel (AID 1508598)
Settings: patient-derived ovarian cancer cells, CellTiter-Glo viability, 144 h; at 0.00488 µM; OCI-C5x cells; with rucaparib 10 µM; stronger effect = lower value; 100% = cells with rucaparib alone
// reported viability for each item listed
The response must be a number in % with no trailing unit.

Molecule	Units	viability
CC(=O)O[C@@]1(C(C)=O)CC[C@H]2[C@@H]3C=C(C)C4=CC(=O)CC[C@]4(C)[C@@H]3CC[C@@]21C	%	102

# get_value(readout='viability', item= CCOC(=O)NCCCC(=O)NCCc1ccccc1 )
111

# get_value(readout='viability', item= CC(C)CC(CC(=O)NO)C(=O)N[C@@H](Cc1ccc2ccccc2c1)C(=O)N[C@@H](C)C(=O)NCCN (stereo partly specified) )
123

# get_value(readout='viability', item= Cc1cc(C)c(-c2csc(NC(=O)c3ccccc3)n2)c(C)c1 )
108

# get_value(readout='viability', item= C[C@@]12CC[C@H]3c4ccc(O)cc4C[C@@H](CCCCCCCCCS(=O)CCCC(F)(F)C(F)(F)F)[C@H]3[C@@H]1CC[C@@H]2O (stereo partly specified) )
118

# get_value(readout='viability', item= Cc1[nH]c(C=C2C(=O)Nc3ccc(S(=O)(=O)Cc4c(Cl)cccc4Cl)cc32)c(C)c1C(=O)N1CCC[C@@H]1CN1CCCC1 )
116

* * *

Test: viability loss with induced miR-34 in A549 – imaging, A549 dox-inducible miR-34, nuclei and caspase counts, primary screen (AID 1347080)
Details: A549 miR-34 inducible, Hoechst nuclei count, 48 h; stronger effect = lower value; cell number ratio, induced over uninduced
Outcome measure: fold change
// response body must contain only the number

Recorded fold change, per entry:
Compound	fold change
O=C(O)CCCc1nc(-c2cccc([N+](=O)[O-])c2)no1	0.855
CC(=O)OCOC(c1cc([N+](=O)[O-])ccc1Oc1ccc(Br)cc1)P(=O)(OCOC(C)=O)OCOC(C)=O (configuration not stated)	1.27
O=C(c1cccc(Cl)c1F)N1CCN(Cc2cccc(Nc3nccs3)n2)CC1	0.822
OCCOc1ccc(C(=C(CCCl)c2ccccc2)c2ccccc2)cc1	0.979
CC(C)C[C@@H](NC(=O)[C@H](Cc1ccccc1)NC(=O)c1cnccn1)B(O)O	1.12

# get_value(readout='fold change', item= CC(=O)SC1CC2=CC(=O)CC[C@]2(C)C2CC[C@@]3(C)C(CC[C@@]34CCC(=O)O4)C12 (some centres not stated) )
1.07

# get_value(readout='fold change', item= C[C@]1(C(=O)Nc2ccc(F)nc2)CCCN1c1nc(Nc2cc(C3CC3)[nH]n2)c2cccn2n1 )
1.01

# get_value(readout='fold change', item= Cc1ccc(NC(=O)c2ccc(CN3CCN(C)CC3)cc2)cc1Nc1nc(-c2cccnc2)cs1 )
0.856

# get_value(readout='fold change', item= CC1OC(OCC2OC(Oc3c(-c4ccc(OCCO)c(OCCO)c4)oc4cc(OCCO)cc(O)c4c3=O)C(O)C(O)C2O)C(O)C(O)C1O (configuration not stated) )
0.984

# get_value(readout='fold change', item= Cn1c(=O)c(O)c(O)c2ccccc21 )
0.815

# get_value(readout='fold change', item= CCC(C)(C)c1ccc(CC(C)CN2CC(C)OC(C)C2)cc1 (configuration not stated) )
0.944

# get_value(readout='fold change', item= COc1ccc2cc1Oc1ccc(cc1)CC1c3cc(c(OC)cc3CCN1C)Oc1c(OC)c(OC)cc3c1C(C2)N(C)CC3 (configuration not stated) )
0.908
